Listed next: entries and their corresponding HDL-C, after administration.
Test system: hyperlipoidemia model of Goldenhamsters (blood plasma TC, HDL-C, LDL-C)
protocol_text: Pharmacological test group 2: effects on blood lipid levels of Goldenhamsters in hyperlipoidemia model
Assay type: in vivo
run_parameters: 40 mg/kg intragastric, 1 week, high-lipid feed continued; blood plasma; x±s; asterisks = P vs before administration
assay_metric: HDL-C, after administration

compound_structure_string: Cc1cc(OC(C)(C)C(=O)OC(C)C)ccc1C(F)(F)c1ccc(Cl)cc1
observed: 1.84
//
compound_structure_string: Cc1ccccc1C(F)(F)c1ccc(OC(C)(C)C(=O)OC(C)C)cc1
observed: 1.77
//
compound_structure_string: CC(C)OC(=O)C(C)(C)Oc1ccc(C(F)(F)c2ccc(Cl)cc2)cc1
observed: 1.83
//
compound_structure_string: CC(C)OC(=O)C(C)(C)Oc1ccc(C(F)(F)c2cccc(Cl)c2)cc1
observed: 1.93
//
compound_structure_string: CC(C)OC(=O)C(C)(C)Oc1ccc(C(F)(F)c2ccccc2Cl)cc1
observed: 1.82
//
compound_structure_string: CC(C)OC(=O)C(C)(C)Oc1ccc(C(F)(F)c2ccc(Cl)cc2)cc1Cl
observed: 1.84

====

protocol_text: Solubility in water (remark on the test drugs)
Format: physicochemical
run_parameters: formulated with 20% solutol

compound_structure_string: CC(C)OC(=O)C(C)(C)Oc1ccc(C(F)(F)c2cccc(Cl)c2)cc1
solubility in water: insoluble
--
compound_structure_string: CC(C)OC(=O)C(C)(C)Oc1ccc(C(F)(F)c2ccc(Cl)cc2)cc1Cl
solubility in water: insoluble
--
compound_structure_string: Cc1ccccc1C(F)(F)c1ccc(OC(C)(C)C(=O)OC(C)C)cc1
solubility in water: insoluble

====

Test system: hyperlipoidemia model of Goldenhamsters (blood plasma TC, TG, HDL-C, LDL-C)
protocol_text: Pharmacological test group 1: effects on blood lipid levels of Goldenhamsters in a hyperlipoidemia model
Assay type: in vivo
run_parameters: 40 mg/kg intragastric, 1 week, high-lipid feed continued; blood plasma; x±s; asterisks = P vs before administration
Listed next: entries and their corresponding LDL-C, after administration.

compound_structure_string: CC(C)OC(=O)C(C)(C)Oc1ccc(C(F)(F)c2ccc(F)cc2)cc1
target_desc: hyperlipoidemia model of Goldenhamsters (blood plasma TC, TG, HDL-C, LDL-C)
LDL-C, after administration: 1.02 ± 0.27
//
compound_structure_string: CCOC(=O)CCCOc1ccc(C(F)(F)c2ccc(Cl)cc2)cc1
target_desc: hyperlipoidemia model of Goldenhamsters (blood plasma TC, TG, HDL-C, LDL-C)
LDL-C, after administration: 1.69 ± 0.47
//
compound_structure_string: CC(C)OC(=O)C(C)(C)Oc1ccc(C(F)(F)c2ccc(Cl)cc2)cc1
target_desc: hyperlipoidemia model of Goldenhamsters (blood plasma TC, TG, HDL-C, LDL-C)
LDL-C, after administration: 1.27 ± 0.26
//
compound_structure_string: CC(C)OC(=O)C(C)(C)Oc1ccc(C(F)(F)c2ccccc2C(F)(F)F)cc1
target_desc: hyperlipoidemia model of Goldenhamsters (blood plasma TC, TG, HDL-C, LDL-C)
LDL-C, after administration: 1.0 ± 0.23
//
compound_structure_string: O=C(COc1ccc(C(F)(F)c2ccc(Cl)cc2)cc1)OCc1ccccc1
target_desc: hyperlipoidemia model of Goldenhamsters (blood plasma TC, TG, HDL-C, LDL-C)
LDL-C, after administration: 2.08 ± 0.89
//
compound_structure_string: CC(C)OC(=O)C(C)(C)Oc1ccc(C(F)(F)c2ccc(Cl)cc2)cc1Cl
target_desc: hyperlipoidemia model of Goldenhamsters (blood plasma TC, TG, HDL-C, LDL-C)
LDL-C, after administration: 1.0 ± 0.35
//
compound_structure_string: CC(C)OC(=O)C(C)(C)Oc1ccc(C(F)(F)c2ccccc2)cc1
target_desc: hyperlipoidemia model of Goldenhamsters (blood plasma TC, TG, HDL-C, LDL-C)
LDL-C, after administration: 1.0 ± 0.45
//
compound_structure_string: COC(=O)c1ccc(C(F)(F)c2ccc(OC(C)(C)C(=O)OC(C)C)cc2)cc1
target_desc: hyperlipoidemia model of Goldenhamsters (blood plasma TC, TG, HDL-C, LDL-C)
LDL-C, after administration: 1.41 ± 0.34
//
compound_structure_string: CC(C)OC(=O)C(C)(C)Oc1ccc(C(F)(F)c2ccc(C(F)(F)F)cc2)cc1
target_desc: hyperlipoidemia model of Goldenhamsters (blood plasma TC, TG, HDL-C, LDL-C)
LDL-C, after administration: 1.26 ± 0.22
//
compound_structure_string: CC(C)OC(=O)C(C)(C)Oc1ccc(C(F)(F)c2ccccc2Cl)cc1
target_desc: hyperlipoidemia model of Goldenhamsters (blood plasma TC, TG, HDL-C, LDL-C)
LDL-C, after administration: 0.75 ± 0.17
//
compound_structure_string: CC(C)OC(=O)C(C)(C)Oc1ccc(C(F)(F)c2cccc(C(F)(F)F)c2)cc1
target_desc: hyperlipoidemia model of Goldenhamsters (blood plasma TC, TG, HDL-C, LDL-C)
LDL-C, after administration: 1.46 ± 0.46
